# assay summary: Restrictive medium S. cerevisiae growth inhibition, OD615, pilot screen of yeast lifespan reduction project, restrictive growth control (AID 706);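 also: modified DeaD lifespan yeast strain shifted to restrictive glucose medium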
# protocol conditions: OD615, 48 h, at 10 µM, stronger effect = higher value
measured parameter: growth inhibition (%)
One number for each entry, in %.

molecule	growth inhibition / %
COc1ccc(CCNC(=O)CC2Oc3ccc(Cl)cc3NC2=O)cc1OC (stereo not drawn)	-7.26

Quick one: give me growth inhibition for each item below, same order please.
1. O=P(O)(CCc1ccncc1)CN1CCCCC1
2. COc1ccccc1Cc1nc(-c2ccc(Br)o2)no1

Result block:
1. -7.67
2. 6.17

Quick one: give me growth inhibition for each item below, same order please.
1. COc1cc(NC(=O)C2CCCC2)c(OC)cc1Cl
2. COc1cccc(OCCn2c(C)c(/C=N/n3cnnc3)c3ccccc32)c1
3. Cn1nnnc1SCC(=O)Nc1ccc(N2CCOCC2)cc1

Result block:
-12
1.59
7.83

###

I'd appreciate it if you could supply viability values for the items below.
# assay summary: growth suppression of beta-catenin knockout HCT116, pilot screen, human colon tumor cells (AID 823);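 also: 0% = wells killed by 20 µM Hyamine and 100% = untreated DMSO cell wells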
# protocol conditions: CellTiter-Glo, 60 h, at 10 µM, stronger effect = lower value
Results filed as inconclusive are left out.
One number for each entry, in %.

Previously resolved entries follow.
molecule	unit label	test value
Cc1ccc2oc(=O)c3cnn(CC(=O)NCCN(C)C)c3c2c1	%	101
CCCCc1ccc(Nc2ncnc3nc[nH]c23)cc1	%	106
CCCCn1c(=O)n(CC(=O)Nc2ccc(C)c(Cl)c2)c(=O)c2c1ncn2Cc1ccco1	%	72.2
CC(C)c1ccc(NC(=O)c2cnn(-c3ccccc3)c2NC(=O)c2ccco2)cc1	%	89.7
COc1ccc(C(=O)N2CCN(c3ccc(C)cc3)CC2)cc1OC	%	103

Quick one: give me viability for each item below, same order please.
1. O=C(CSCc1ccc(Cl)cc1)c1ccco1
2. FC(F)C(F)(F)C1=CC(c2ccccc2)=NCCN1
3. CCOc1ccc(NC2CCN(C(C)=O)CC2)cc1
4. CCCNC(=O)Nc1cc(OCC)c(N2CCOCC2)cc1OCC
5. COC(=O)c1c(S(N)(=O)=O)c2ccccc2n1C
6. Cc1c(-n2cc(C(=O)O)c(=O)c3cc(F)c(N4CCCC4)c(F)c32)c(=O)n(-c2ccccc2)n1C

Result block:
1. 96.5
2. 96.7
3. 95.2
4. 99.6
5. 100
6. 98.8

###

I'd appreciate it if you could supply growth inhibition values for the items below.
# assay summary: OD615 S. cerevisiae growth inhibition, permissive medium, pilot counter-assay, permissive growth control for S. cerevisiae lifespan shortening project (AID 705)
# protocol conditions: OD615, 24 h, at 10 µM, stronger effect = higher value
One number for each entry, in %.

Previously resolved entries follow.
compound	measured parameter	test value
O=C(O)c1cc(-c2ccc(Cl)cc2)n[nH]1	growth inhibition	-6.99
CCOC(=O)N1CCN(C(=O)C2CCCN(c3nc4ccc(OCC)cc4s3)C2)CC1 (stereo unspecified)	growth inhibition	-6.49
O=S(=O)(c1ccc(N2CC=C(c3ccccc3)CC2)nc1)N1CCCC1	growth inhibition	-6.39

Quick one: give me growth inhibition for each item below, same order please.
1. Nc1nonc1C(=O)NCCc1ccccc1
2. COc1ccc2c(c1OC)C(=O)OC2Nc1ccccn1 (stereo unspecified)
3. Brc1ccc2c(c1)c1nc3ccccc3nc1n2CCN1CCOCC1
4. O=C(c1cccc(C(=O)N2CCc3ccccc32)n1)N1CCc2ccccc21

Result block:
[-6.66, 10.3, -11, -9.26]

Quick one: give me growth inhibition for each item below, same order please.
1. CCCN1C(=O)c2cc(C(=O)NCCc3cccc(C)c3)ccc2C1O (stereo unspecified)
2. CCC1CCCCN1Cc1nc2c(c(=O)n(C)c(=O)n2C)n1Cc1cccc2ccccc12 (stereo unspecified)
3. O=c1[nH]cnc2c1sc(=S)n2-c1ccccc1
4. OC(CN1C2=NCCCN2c2ccccc21)c1ccc(Cl)cc1 (stereo unspecified)

Result block:
-2.76
-13.7
10.2
-8.91

###

# assay summary: RAM signaling pathway blockade in yeast – S. cerevisiae, Pdr1DBD-CYC8 efflux-inhibited sensitized strain, primary screen (AID 1298);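 also: 0% = DMSO untreated cells without growth and 100% = 10 µM 1-NA-PP1 full growth; higher means more yeast growth rescued from 5-FOA killing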
# protocol conditions: S. cerevisiae cbk1-as DSE1-URA3 strain, 5-FOA growth OD615, 2 d; at 50 µM; stronger effect = higher value
I'd appreciate it if you could supply RAM network inhibition values for the items below.
Give bare numbers, in %.

Quick one: give me RAM network inhibition for each item below, same order please.
1. COC(=O)c1ccc(CSc2ncn[nH]2)o1
2. Cc1occc1-c1nc(-c2ccccn2)no1
3. Cc1cccn2c(=O)c3cc(C(=O)NC4CCS(=O)(=O)C4)sc3nc12 (stereo unspecified)
4. CCOC(=O)c1[nH]c(=O)[nH]c1CSc1nc(C)cc(C)n1
5. O=C(Nc1ccc(S(=O)(=O)N2CCCC2)cc1)C1COc2ccccc2O1 (stereo unspecified)
6. CCOC(=O)N1CCN(C(=O)CN(c2cc(C(F)(F)F)ccc2Cl)S(C)(=O)=O)CC1

Result block:
[3.38, 1.6, 0.09, 5.37, 5.44, -0.25]

Quick one: give me RAM network inhibition for each item below, same order please.
1. COc1ccc(S(=O)(=O)Cc2ccc(C(=O)N3CCC(C(N)=O)CC3)o2)cc1
2. O=C(Cn1ncc2c(=O)oc3ccccc3c21)N1CCc2ccccc2C1
3. COc1ccc(NC(=O)Nc2cccc3cccnc23)cc1
4. C=CCn1c(C)c(C(C)=O)c(SC)nc1=S
5. CC(C)Sc1nc2c(cnn2-c2ccc(F)cc2)c(=O)[nH]1

Result block:
4.37
-0.07
0.21
5.32
3.54

###

# assay summary: viability gain of MRP-1-high H69AR cells under doxorubicin, pilot screen, MRP-1 activator project, CellTiter-Glo, duplicate (AID 807);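 also: compound pretreatment 18-22 h then 72 h combined with doxorubicin; 0% = doxorubicin alone and 100% = vehicle without doxorubicin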
# protocol conditions: H69AR viability with doxorubicin, CellTiter-Glo luminescence; at 10 µM; stronger effect = higher value
measured parameter: viability increase (%)
Numbers only, in %.

compound	measured parameter	test value
Cc1cc(NC(=O)COC(=O)c2ccc(F)c(S(=O)(=O)N3CCOCC3)c2)no1	viability increase	-1.16
C=CCn1c(O)c(C2=c3ccccc3=NC2=O)sc1=Nc1ccc(O)cc1	viability increase	-8.74

Quick one: give me viability increase for each item below, same order please.
1. CC(=O)NC(CCS(C)(=O)=O)C(=O)Nc1ccc(Oc2ccccc2)cc1 (stereo not drawn)
2. COc1ccc(-c2nc(Cn3c(SCc4cccc(F)c4)nc4ccncc43)c(C)o2)cc1OC
3. COC(=O)C1CCCN1C(C(=O)NC1CCCCC1)c1ccc(Cl)cc1 (stereo not drawn)
4. Cc1nnc(Sc2nc3c(c(=O)[nH]c(=O)n3C)n2Cc2ccccc2)s1
5. COc1ccccc1C(=O)NCc1ccc2c(c1)OCO2
6. c1ccc(Cn2ncc3ccccc32)cc1
7. CC1CCN(CC(O)COc2ccc(F)cc2)CC1 (stereo not drawn)

Result block:
1. -0.67
2. -3.1
3. 1.72
4. -0.33
5. 0.91
6. -1.05
7. -0.7

Quick one: give me viability increase for each item below, same order please.
1. CN(C)C1NC(=O)c2cc(-c3ccccc3)sc2N1 (stereo not drawn)
2. O=C(CCN1C(=O)c2ccccc2C1=O)Nc1ccncc1
3. CCOC(=O)c1sc(NC(=O)c2ccc3ncsc3c2)nc1C

Result block:
[-0.01, 3.4, -2.47]

###

# assay summary: OD615 S. cerevisiae growth inhibition, permissive medium, pilot counter-assay, permissive growth control for S. cerevisiae lifespan shortening project (AID 705)
# protocol conditions: OD615, 24 h, at 10 µM, stronger effect = higher value
I'd appreciate it if you could supply growth inhibition values for the items below.
One number for each entry, in %.

Previously resolved entries follow.
molecule	measured parameter	test value
CC(C)c1nnc(NC(=O)CN2C(=O)c3ccccc3C2=O)s1	growth inhibition	-5.71
O=C(NCc1ccncc1)C(F)(F)C(F)(F)C(=O)NCc1ccncc1	growth inhibition	-0.215

Quick one: give me growth inhibition for each item below, same order please.
1. CCOC(=O)C1CCCN(c2c(Nc3cccc(C)c3)c(=O)c2=O)C1 (stereo unspecified)
2. O=C1CCCC/C1=C\Nc1ccc(Cl)cn1
3. CCC(=O)Nc1nc2c(OC)ccc(OC)c2s1
4. CC1CN(c2cc(=O)n(Cc3ccc(F)cc3)c(=O)[nH]2)CC(C)O1 (stereo unspecified)

Result block:
1: -6.7; 2: -4.26; 3: -2.06; 4: 5.64

###

# assay summary: growth suppression of beta-catenin knockout HCT116, pilot screen, human colon tumor cells (AID 823);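 also: 0% = wells killed by 20 µM Hyamine and 100% = untreated DMSO cell wells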
# protocol conditions: CellTiter-Glo, 60 h, at 10 µM, stronger effect = lower value
Results filed as inconclusive are left out.
measured parameter: viability (%)
Numbers only, in %.

CC(=O)NC1(c2ccccc2)CCN(Cc2nnnn2C(C)(C)C)CC1 102
COc1ccccc1-n1c(CNC(=O)c2ccco2)nnc1SCC(=O)Nc1nccs1 77.4
COC(=O)CSc1nc2ccccc2nc1SCC(=O)OC 93.4
Cn1cnnc1SCc1ccc(C#N)cc1Cl 99.7
COc1ccc(-n2cnnc2)cc1 98.2

Then this molecule:
Query block: Entry `COC(=O)C1=CN(CCCN2CCCC2=O)C=C(C(=O)OC)C1c1ccccc1C(F)(F)F` : reported viability = ?
Result block: 39.6
